# Target System: T1, cynomolgus monkey (cyno) complement protein C5 (cynomolgus monkey, UniProt A0A2K5U1T1 19-1676)
# T1 construct: also called cC5; cyno C5
# Test Description: SPR (Biacore), pH 6.0
Measured Endpoint: koff (s⁻¹)
Express the result in s⁻¹ but write the number alone.

Request the reported koff associated with CRL0484 (bispecific antibody, anti-C5 VHH / (G4S)3 / anti-albumin VHH fusion, purified by Protein A; also called CRL0484 (C5/HSA)) EVQLVESGGGLVQPGGSLRLSCAASGRTFSGILSPYAVGWFRQAPGKGLEFVSTITSGGSAIYTDSVKGRFTISRDNAKDSLYLQMNSLRAEDTAVYYCAVRTRRYGSNLGEVPQENEYGYWGQGTLVTVSSGGGGSGGGGSGGGGSEVQLVESGGGLVKPGGSLRLSCAASGRPVSNYAAAWFRQAPGKEREFVSAINWQKTATYADSVKGRFTISRDNAKNSLYLQMNSLRAEDTAVYYCAAVFRVVAPKTQYDYDYWGQGTLVTVSS
6.17e-06
